assay: Pharmacokinetic study in male Sprague Dawley rats; assay type: in vivo, rat; conditions: male, Sprague Dawley, rat, plasma, oral, 10 mg/kg, 10 mg/kg PO, Male Sprague Dawley Rats, 1 h, average; read-out: Plasma Concentration Average
reported property: concentration at 1 h (ng/mL)
Provide only the numeric value, understood in ng/mL.

Enquiry: Looking for the measured concentration at 1 h of COc1cc(-c2cn(C)c(=O)c(C)c2C)cc(OC)c1CN1CC[C@H](N2CCN(c3ccc(N[C@H]4CCC(=O)NC4=O)cc3F)CC2)C(F)(F)C1 , can you help?
Return: 598

----------
test: Pharmacokinetic study in male CD1 mice; format: in vivo, mouse; conditions: male, CD1, mouse, plasma, oral, 10 mg/kg, 10 mg/kg PO, 24 h; read-out: Plasma Concentration, Average
reported property: concentration at 24 h (ng/mL)
Provide only the numeric value, understood in ng/mL.

Enquiry: Looking for the measured concentration at 24 h of COc1cc(-c2cn(C)c(=O)c(C)c2C)cc(OC)c1CN1CC[C@H](N2CCN(c3ccc(N[C@H]4CCC(=O)NC4=O)cc3F)CC2)C(F)(F)C1 , can you help?
Return: 37.8

----------
assay: Pharmacokinetic study in male Sprague Dawley rats; assay type: in vivo, rat; details: male, Sprague Dawley, rat, plasma, oral, 10 mg/kg, 10 mg/kg PO, Male Sprague Dawley Rats, 1 h, Rat-3; read-out: Plasma Concentration (ng/mL) Rat-3
reported property: concentration at 1 h
I'd appreciate it if you wrote the number followed by its unit.

Enquiry: Looking for the measured concentration at 1 h of COc1cc(-c2cn(C)c(=O)c(C)c2C)cc(OC)c1CN1CC[C@H](N2CCN(c3ccc(N[C@H]4CCC(=O)NC4=O)cc3F)CC2)C(F)(F)C1 , can you help?
Return: 729 ng/mL

----------
assay: Monkey Hepatocyte Stability Assay; assay type: in vitro ADME, cynomolgus monkey; details: cryopreserved hepatocytes, read-out: CL int in vivo
reported property: CLint scaled at 1 µM (mL/min/kg)
Provide only the numeric value, understood in mL/min/kg.

Enquiry: Looking for the measured CLint scaled at 1 µM of COc1cc(-c2cn(C)c(=O)c(C)c2C)cc(OC)c1CN1CC[C@H](N2CCN(c3ccc(N[C@H]4CCC(=O)NC4=O)cc3F)CC2)C(F)(F)C1 , can you help?
Return: 56.5

----------
experiment: Pharmacokinetic study in male Sprague Dawley rats; assay type: in vivo, rat; details: male, Sprague Dawley, rat, plasma, intravenous, 2 mg/kg, 2 mg/kg IV, 24 h; read-out: Plasma Concentration, Average
reported property: concentration at 24 h (ng/mL)
Provide only the numeric value, understood in ng/mL.

Enquiry: Looking for the measured concentration at 24 h of COc1cc(-c2cn(C)c(=O)c(C)c2C)cc(OC)c1CN1CC[C@H](N2CCN(c3ccc(N[C@H]4CCC(=O)NC4=O)cc3F)CC2)C(F)(F)C1 [Compound 1] , can you help?
Return: 3.76

----------
assay: Pharmacokinetic study in male CD1 mice; type: in vivo, mouse; conditions: mouse, plasma; male CD1 mice, 2 mg/kg IV, Mean
reported property: half-life (h)
Provide only the numeric value, understood in h.

Enquiry: Looking for the measured half-life of COc1cc(-c2cn(C)c(=O)c(C)c2C)cc(OC)c1CN1CC[C@H](N2CCN(c3ccc(N[C@H]4CCC(=O)NC4=O)cc3F)CC2)C(F)(F)C1 , can you help?
Return: 3.65

----------
assay: Pharmacokinetic study in male Sprague Dawley rats; format: in vivo, rat; details: male, Sprague Dawley, rat, plasma, oral, 10 mg/kg, 10 mg/kg PO, Male Sprague Dawley Rats, 0.33 h, average; read-out: Plasma Concentration Average
reported property: concentration at 0.33 h (ng/mL)
Provide only the numeric value, understood in ng/mL.

Enquiry: Looking for the measured concentration at 0.33 h of COc1cc(-c2cn(C)c(=O)c(C)c2C)cc(OC)c1CN1CC[C@H](N2CCN(c3ccc(N[C@H]4CCC(=O)NC4=O)cc3F)CC2)C(F)(F)C1 [Compound 1] , can you help?
Return: 247

----------
experiment: Pharmacokinetic study in male CD1 mice; type: in vivo, mouse; conditions: male, CD1, mouse, plasma, oral, 10 mg/kg, 10 mg/kg PO, 0.33 h; read-out: Plasma Concentration, Average
reported property: concentration at 0.33 h (ng/mL)
Provide only the numeric value, understood in ng/mL.

Enquiry: Looking for the measured concentration at 0.33 h of COc1cc(-c2cn(C)c(=O)c(C)c2C)cc(OC)c1CN1CC[C@H](N2CCN(c3ccc(N[C@H]4CCC(=O)NC4=O)cc3F)CC2)C(F)(F)C1 , can you help?
Return: 1750

----------
assay: Mouse Hepatocyte Stability Assay; format: in vitro ADME; conditions: CD-1, cryopreserved hepatocytes
reported property: half-life at 1 µM (min)
Provide only the numeric value, understood in min.

Enquiry: Looking for the measured half-life at 1 µM of CC(C)NCC(O)COc1cccc2ccccc12 (centres unmarked) [Propranolol, reference compound] , can you help?
Return: 16.3

----------
experiment: Pharmacokinetic study in male CD1 mice; assay type: in vivo, mouse; conditions: male, CD1, mouse, plasma, oral, 10 mg/kg, 10 mg/kg PO, 4 h; read-out: Plasma Concentration, individual mice
reported property: concentration at 4 h (ng/mL)
Provide only the numeric value, understood in ng/mL.

Enquiry: Looking for the measured concentration at 4 h of COc1cc(-c2cn(C)c(=O)c(C)c2C)cc(OC)c1CN1CC[C@H](N2CCN(c3ccc(N[C@H]4CCC(=O)NC4=O)cc3F)CC2)C(F)(F)C1 , can you help?
Return: 1880

----------
assay: Pharmacokinetic study in male Sprague Dawley rats; format: in vivo, rat; conditions: male, Sprague Dawley, rat, plasma, intravenous, 2 mg/kg, 2 mg/kg IV, 8 h; read-out: Plasma Concentration, individual rats
reported property: concentration at 8 h (ng/mL)
Provide only the numeric value, understood in ng/mL.

Enquiry: Looking for the measured concentration at 8 h of COc1cc(-c2cn(C)c(=O)c(C)c2C)cc(OC)c1CN1CC[C@H](N2CCN(c3ccc(N[C@H]4CCC(=O)NC4=O)cc3F)CC2)C(F)(F)C1 [Compound 1] , can you help?
Return: 51.4

----------
assay: in vitro; settings: CD-1, mouse, plasma
reported property: fraction unbound at 3 h, 2 µM
Quick one: just the number, no unit, thanks!

Enquiry: Looking for the measured fraction unbound at 3 h, 2 µM of COc1cc(-c2cn(C)c(=O)c(C)c2C)cc(OC)c1CN1CC[C@H](N2CCN(c3ccc(N[C@H]4CCC(=O)NC4=O)cc3F)CC2)C(F)(F)C1 [Compound 1] , can you help?
Return: 0.0339

----------
experiment: Pharmacokinetic study in male CD1 mice; type: in vivo, mouse; conditions: male, CD1, mouse, plasma, oral, 10 mg/kg, 10 mg/kg PO, 0.033 h; read-out: Plasma Concentration, Average
reported property: concentration at 0.033 h (ng/mL)
Provide only the numeric value, understood in ng/mL.

Enquiry: Looking for the measured concentration at 0.033 h of COc1cc(-c2cn(C)c(=O)c(C)c2C)cc(OC)c1CN1CC[C@H](N2CCN(c3ccc(N[C@H]4CCC(=O)NC4=O)cc3F)CC2)C(F)(F)C1 , can you help?
Return: 62.7

----------
Test: Pharmacokinetic study in male CD1 mice
Format: in vivo, mouse
Conditions: male, CD1, mouse, plasma, oral, 10 mg/kg, 10 mg/kg PO, 1 h; read-out: Plasma Concentration, individual mice
Description: The pharmacokinetic (PK) profile in plasma of Compound 1 was determined in male CD1 mice following single dose intravenous (IV) (2 mg/kg) and per os (PO) (10 mg/kg) administration. […] All animals were housed in cages with clean bedding and maintained and monitored for good health and at the discretion of the laboratory animal veterinarian. […] After blood collection from each animal, the sample from that animal was recorded in the sample collection sheet. […]
reported property: concentration at 1 h (ng/mL)
Provide only the numeric value, understood in ng/mL.

Enquiry: Looking for the measured concentration at 1 h of COc1cc(-c2cn(C)c(=O)c(C)c2C)cc(OC)c1CN1CC[C@H](N2CCN(c3ccc(N[C@H]4CCC(=O)NC4=O)cc3F)CC2)C(F)(F)C1 [Compound 1] , can you help?
Return: 2890

----------
assay: Pharmacokinetic study in male Sprague Dawley rats; format: in vivo, rat; details: male, Sprague Dawley, rat, plasma, intravenous, 2 mg/kg, 2 mg/kg IV, 2 h; read-out: Plasma Concentration, Average
reported property: concentration at 2 h (ng/mL)
Provide only the numeric value, understood in ng/mL.

Enquiry: Looking for the measured concentration at 2 h of COc1cc(-c2cn(C)c(=O)c(C)c2C)cc(OC)c1CN1CC[C@H](N2CCN(c3ccc(N[C@H]4CCC(=O)NC4=O)cc3F)CC2)C(F)(F)C1 , can you help?
Return: 181

----------
target: hERG potassium channels (Homo sapiens, UniProt Q12809)
Sequence (Q12809 whole entry): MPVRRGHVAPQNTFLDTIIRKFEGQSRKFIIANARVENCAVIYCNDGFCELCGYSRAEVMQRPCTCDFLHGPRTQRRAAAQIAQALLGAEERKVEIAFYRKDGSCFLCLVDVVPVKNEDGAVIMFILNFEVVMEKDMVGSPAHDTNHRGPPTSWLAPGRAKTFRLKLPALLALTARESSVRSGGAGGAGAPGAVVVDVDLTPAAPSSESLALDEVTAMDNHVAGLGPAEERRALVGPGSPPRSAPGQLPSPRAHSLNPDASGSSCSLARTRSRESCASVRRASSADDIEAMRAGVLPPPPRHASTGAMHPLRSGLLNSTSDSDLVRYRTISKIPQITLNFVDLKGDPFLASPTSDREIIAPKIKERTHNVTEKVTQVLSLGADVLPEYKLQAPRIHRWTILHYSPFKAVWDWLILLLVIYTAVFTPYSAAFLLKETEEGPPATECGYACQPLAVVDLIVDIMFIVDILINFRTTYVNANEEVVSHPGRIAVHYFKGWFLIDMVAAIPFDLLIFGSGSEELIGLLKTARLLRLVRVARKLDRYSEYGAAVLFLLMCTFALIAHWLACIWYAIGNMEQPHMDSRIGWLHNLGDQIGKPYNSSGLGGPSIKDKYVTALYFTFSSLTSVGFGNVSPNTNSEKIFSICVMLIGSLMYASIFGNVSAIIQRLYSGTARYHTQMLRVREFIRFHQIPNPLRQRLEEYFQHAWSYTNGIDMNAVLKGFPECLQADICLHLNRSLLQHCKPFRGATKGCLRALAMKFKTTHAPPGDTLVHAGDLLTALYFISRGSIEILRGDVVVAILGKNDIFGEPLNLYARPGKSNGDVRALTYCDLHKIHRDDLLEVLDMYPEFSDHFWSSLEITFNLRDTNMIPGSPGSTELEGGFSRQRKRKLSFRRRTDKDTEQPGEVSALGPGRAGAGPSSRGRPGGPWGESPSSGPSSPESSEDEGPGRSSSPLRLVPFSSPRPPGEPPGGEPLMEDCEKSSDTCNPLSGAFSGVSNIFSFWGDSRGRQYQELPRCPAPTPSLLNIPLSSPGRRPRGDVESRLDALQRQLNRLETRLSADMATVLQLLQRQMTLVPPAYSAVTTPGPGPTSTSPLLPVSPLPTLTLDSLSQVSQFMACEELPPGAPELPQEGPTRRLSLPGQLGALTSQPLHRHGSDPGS
reported property: IC50 (µM)
Provide only the numeric value, understood in µM.

Enquiry: Give hERG potassium channels (Homo sapiens, UniProt Q12809) IC50 for COc1cc(-c2cn(C)c(=O)c(C)c2C)cc(OC)c1CN1CC[C@H](N2CCN(c3ccc(N[C@H]4CCC(=O)NC4=O)cc3F)CC2)C(F)(F)C1
Return: 2.91
